# Assay Target: BAF3 KIT EX11 DEL/V654A (Homo sapiens, UniProt P10721, V654A, cells depend on it, form not given)
# Sequence (P10721 with tags, fused parts or gaps DEL557-558/V654A, form open): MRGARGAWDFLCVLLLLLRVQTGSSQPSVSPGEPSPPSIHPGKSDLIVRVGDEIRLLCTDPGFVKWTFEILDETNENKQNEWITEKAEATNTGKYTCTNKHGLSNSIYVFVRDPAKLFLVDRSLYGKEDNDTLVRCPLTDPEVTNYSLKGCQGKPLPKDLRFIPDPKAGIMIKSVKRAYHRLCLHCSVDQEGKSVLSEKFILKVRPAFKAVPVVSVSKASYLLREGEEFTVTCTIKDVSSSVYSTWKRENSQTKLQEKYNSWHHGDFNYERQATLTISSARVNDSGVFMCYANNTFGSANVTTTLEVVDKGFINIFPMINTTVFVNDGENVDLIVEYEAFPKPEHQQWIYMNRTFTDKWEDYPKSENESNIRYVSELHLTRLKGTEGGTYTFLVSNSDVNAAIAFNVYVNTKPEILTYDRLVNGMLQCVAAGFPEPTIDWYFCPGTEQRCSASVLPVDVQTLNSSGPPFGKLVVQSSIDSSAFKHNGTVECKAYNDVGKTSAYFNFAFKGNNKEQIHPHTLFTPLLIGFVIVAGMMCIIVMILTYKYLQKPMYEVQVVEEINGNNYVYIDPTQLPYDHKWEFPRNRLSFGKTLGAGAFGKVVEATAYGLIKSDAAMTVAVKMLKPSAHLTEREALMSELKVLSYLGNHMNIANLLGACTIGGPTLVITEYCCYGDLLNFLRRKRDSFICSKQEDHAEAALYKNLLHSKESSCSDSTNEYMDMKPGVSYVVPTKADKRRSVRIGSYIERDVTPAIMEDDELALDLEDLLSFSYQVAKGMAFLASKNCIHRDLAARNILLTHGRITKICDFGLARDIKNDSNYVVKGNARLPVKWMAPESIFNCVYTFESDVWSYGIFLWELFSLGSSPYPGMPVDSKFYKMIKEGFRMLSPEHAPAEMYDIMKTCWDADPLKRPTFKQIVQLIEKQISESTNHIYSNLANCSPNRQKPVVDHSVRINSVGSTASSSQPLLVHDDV
# Test Summary: Ba/F3 KIT mutant viability assay (Cell Titer-Glo), EX11 DEL/V654A
# Format: cell-based
# Condition Notes: 72 hours
Readout Name: GI50

// lookup GI50 for `Cc1ccc(NC(=O)c2cc(C(F)(F)F)ccn2)cc1C#Cc1cnc(NC(=O)N2CC[C@H](N(C)C)C2)s1` 0.01 to 0.05 µM

For the compound `Cc1ccc(NC(=O)c2cc(C(F)(F)F)ccn2)cc1C#Cc1cnc(NC(=O)N2CC(O)C2)s1` , what GI50 is on record? 0.01 to 0.05 µM

// returns reported GI50 for input `Cc1ccc(NC(=O)c2cc(C(F)(F)F)ccn2)cc1C#Cc1cnc(NC(=O)N2CC(C)(O)C2)s1` 0.01 to 0.05 µM

Dear colleague, I am looking for the recorded GI50 of the following compound: `Cc1ccc(NC(=O)c2cc(C(F)(F)F)ccn2)cc1C#Cc1cnc(NC(=O)N2CC[C@H](O)C2)s1` < 0.01 µM
